B1: ZNF511 (parent)
chain: FDALDDYEHHYHTLHGNVCSFCKR

# Variants of: B1
# method summary: protein stability index of a GFP-peptide fusion (GPS, HEK-293T) (PSI 1-6); higher = more stable;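 also: lentivirally expressed fusions sorted by FACS into six bins by GFP to DsRed ratio, PSI derived from sequencing read proportions per bin multiplied by bin number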
# applied conditions: c terminus: a fixed tail appended
Tick rule met if protein stability index is 4 or greater. Tick rule not met if protein stability index is less than 4.

D6F ... rule not met
G16T ... rule not met
Y7I ... rule met
T13F ... rule not met
Y11N ... rule met

From here, focus on the item given below.
Lookup: Does protein stability index meet or surpass 4 for "D5G" ?
Found: rule met
